B1: FBXO3 (parent)
chain: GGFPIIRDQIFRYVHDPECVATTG

Variants of: B1
experimentalDetails: protein stability index of a GFP-peptide fusion (GPS, HEK-293T) (PSI 1-6); higher = more stable;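 further: lentivirally expressed fusions sorted by FACS into six bins by GFP to DsRed ratio, PSI derived from sequencing read proportions per bin multiplied by bin number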
conditionDescription: c terminus: a fixed tail appended
// label = 1 if protein stability index is not less than 2, otherwise -1

variantCode	label
V20W	-1
V20L	-1
P17M	1
D8R	1
H15P	1
G2V	1
T22G	-1
G1A	1
G2A	-1
R7G	1
P4V	-1
C19W	1
E18Q	-1
I5R	-1
Y13M	1
R7M	-1
R7T	1
R7A	1
I6N	1
G2C	-1
R12A	1
Y13E	1
T23F	1
P17H	-1
V20K	-1
F3N	1
A21E	-1
G24D	1
R7P	1
I5F	-1
I6F	-1
D8K	1
D16K	1
A21D	-1
C19H	-1
P17N	1
V14N	1
Q9Y	1
D16Q	1
I10M	1
F11H	1
F11S	1
I10Y	1
C19V	1
